Origin of measurements: patent US20140088052A1

Test system: Nrf2
PROTOCOL NOTES: Expression of Nrf2-regulated genes GCLM and NQO1 by qRT-PCR in Beas-2B cells (screen)
Format: cell-based, human
EXPERIMENTAL PARAMETERS: Homo sapiens, BEAS-2B, 16 h, DMSO = 1.0 (Table 2), read-out: Relative Fold Change NQO1
PROPERTY NAME: fold induction at 10 µM
Write no unit; give the number alone.

Problem: # get_value(readout= fold induction at 10 µM, system= Nrf2) for COc1ccc(C(=O)/C=C/c2ccc(C(F)(F)F)cc2)c(OC)c1OC
Result: 3.9

Problem: Consider next the molecule COc1cccc(C(=O)/C=C/c2ccccc2)c1 in the same way.
Result: 2.4

Problem: Here is the next molecule: COc1cccc(OC)c1C(=O)/C=C/c1cccc(C(F)(F)F)c1
Result: 0.6

Problem: Again, but for COc1cc(OC)c(C(=O)/C=C/c2cccc(C(F)(F)F)c2)c(OC)c1
Result: 0.7

Problem: Another molecule to check: COc1cc(OC)cc(C(=O)/C=C/c2ccccc2[N+](=O)[O-])c1
Result: 4.1

Problem: For COc1ccccc1C(=O)/C=C/c1ccc(C(F)(F)F)cc1 then?
Result: 5.4

Problem: Another molecule to check: COc1cc(OC)cc(C(=O)/C=C/c2ccccc2C(F)(F)F)c1
Result: 3.7

Problem: Next molecule: COc1cccc(OC)c1C(=O)/C=C/c1ccccc1C(F)(F)F
Result: 5.3

Problem: Lookup COc1ccc(C(=O)/C=C/c2ccccc2C(F)(F)F)c(OC)c1OC
Result: 4.1

---

System: Nrf2
PROTOCOL NOTES: Expression of Nrf2-regulated genes GCLM and NQO1 by qRT-PCR in Beas-2B cells (screen)
Type: cell-based, human
EXPERIMENTAL PARAMETERS: Homo sapiens, BEAS-2B, 16 h, DMSO = 1 (Table 3), read-out: Relative Fold Change GCLM
Threshold check on fold induction at 10 µM: strictly below 4 is 1; on or above 4 is 0.

Problem: Record COc1cccc(C(=O)/C=C/c2ccccc2C(F)(F)F)c1 : is its fold induction at 10 µM strictly below 4?
Result: 0

Problem: What about COc1cccc(OC)c1C(=O)/C=C/c1ccccc1C(F)(F)F ?
Result: 0

Problem: Please answer likewise for C[S+]([O-])CCCCN=C=S (centres unmarked) [Sulforaphane, reference compound]
Result: 1

Problem: Would you kindly repeat that for COc1ccccc1C(=O)/C=C/c1ccc(C(F)(F)F)cc1 ?
Result: 0

Problem: Proceed to COc1cc(OC)cc(C(=O)/C=C/c2cccc(C(F)(F)F)c2)c1
Result: 1

Problem: Same for COc1cccc(C(=O)/C=C/c2cccc(C(F)(F)F)c2)c1
Result: 0

Problem: What do we get for COc1cc(OC)c(C(=O)/C=C/c2ccccc2C(F)(F)F)c(OC)c1 ?
Result: 0

---

Tested on: Nrf2
PROTOCOL NOTES: Expression of Nrf2-regulated genes GCLM and NQO1 by qRT-PCR in Beas-2B cells (screen)
Assay type: cell-based, human
EXPERIMENTAL PARAMETERS: Homo sapiens, BEAS-2B, 16 h, DMSO = 1.0 (Table 2), read-out: Relative Fold Change NQO1
I'd be grateful if you could share measured fold induction at 10 µM for these entries.
Give a plain numeric answer without units written out.

Problem: Would you kindly share the measured fold induction at 10 µM for COc1cc(OC)c(C(=O)/C=C/c2ccc(C(F)(F)F)cc2)c(OC)c1 [Compound 4k] ?
Result: 2.4

Problem: Another: COc1cc(OC)cc(C(=O)/C=C/c2cccc(C(F)(F)F)c2)c1 [Compound 3i]
Result: 3.9

Problem: What would you report for O=C(/C=C/c1ccc(C(F)(F)F)cc1)c1ccccc1 [Compound 4a] ?
Result: 2.9

Problem: Proceed to COc1ccc(C(=O)/C=C/c2ccc(C(F)(F)F)cc2)cc1OC [Compound 4h]
Result: 2.7

Problem: And the next one, COc1cc(OC)c(C(=O)/C=C/c2ccccc2)c(OC)c1 [Compound 1l] ?
Result: 1.8

Problem: Please give the result for COc1ccc(C(=O)/C=C/c2cccc(C(F)(F)F)c2)cc1OC [Compound 3h] too.
Result: 2.9

Problem: Another compound to check: COc1cccc(OC)c1C(=O)/C=C/c1ccc(C(F)(F)F)cc1 [Compound 4f]
Result: 0.6

Problem: COc1ccc(C(=O)/C=C/c2cccc(C(F)(F)F)c2)c(OC)c1OC [Compound 3k] ?
Result: 3.2

Problem: Same lookup for COc1ccc(C(=O)/C=C/c2ccccc2[N+](=O)[O-])c(OC)c1OC [Compound 5k] , please.
Result: 3.3
